Hello, the source for this data is BindingDB's records for doi:10.1016/j.ejmech.2014.09.084, in case you need it.

- Test Name: Modulatory activity at P-gp assessed as doxorubicin IC50 in human K562 cells at 1 uM after 72 hrs by MTT assay (Rvb doxorubicin alone IC50 = 0.023 +/- 0.004 uM)
Entries and their IC50 values follow.
All answers are understood in nM, so give the number only.

Chemical Structure | Value Observed
COc1cc(/C=C/C(=O)OCCCN(C)CCCCCOC(=O)c2c3ccccc3cc3ccccc23)cc(OC)c1OC | 12

Next item in the queue.
Query: Consider the molecule COc1cc(/C=C/C(=O)OCCCCN(C)CCCCOC(=O)c2c3ccccc3cc3ccccc23)cc(OC)c1OC and give its measured IC50.
Result: 41

* * *

Entries and their IC50 values follow.
- Test Name: Modulatory activity at P-gp assessed as doxorubicin IC50 in human K562 cells at 3 uM after 72 hrs by MTT assay (Rvb doxorubicin alone IC50 = 0.023 +/- 0.004 uM)
All answers are understood in nM, so give the number only.

Chemical Structure | Unit Spec | IC50
COc1cc(/C=C/C(=O)OCCCN(C)CCCCCOC(=O)c2c3ccccc3cc3ccccc23)cc(OC)c1OC | nM | 51
COc1cc(/C=C/C(=O)OCCCCN(C)CCCCOC(=O)c2c3ccccc3cc3ccccc23)cc(OC)c1OC | nM | 19

Next item in the queue.
Query: Consider the molecule COc1cc(/C=C/C(=O)OCCCCCN(C)CCCOC(=O)c2c3ccccc3cc3ccccc23)cc(OC)c1OC and give its measured IC50.
Result: 18

* * *

- Test Name: Modulatory activity at P-gp assessed as doxorubicin IC50 in human K562/DOX cells at 0.1 uM after 72 hrs by MTT assay (Rvb doxorubicin alone IC50 = 2.00 +/- 0.24 uM)
Observable: IC50 (nM)
All answers are understood in nM, so give the number only.

Guide cases for IC50, answers given:
Chemical Structure | Value Observed
COc1cc(/C=C/C(=O)OCCCCCN(C)CCCOC(=O)c2c3ccccc3cc3ccccc23)cc(OC)c1OC | 300
COc1cc(/C=C/C(=O)OCCCN(C)CCCCCOC(=O)c2c3ccccc3cc3ccccc23)cc(OC)c1OC | 620

Next item in the queue.
Query: Consider the compound COc1cc(/C=C/C(=O)OCCCCN(C)CCCCOC(=O)c2c3ccccc3cc3ccccc23)cc(OC)c1OC and give its measured IC50.
Result: 830

* * *

Entries and their IC50 values follow.
- Test Name: Modulatory activity at P-gp assessed as doxorubicin IC50 in human K562/DOX cells at 1 uM after 72 hrs by MTT assay (Rvb doxorubicin alone IC50 = 2.00 +/- 0.24 uM)
The answer consists of two parts: a number and, after it, its unit.

Chemical Structure | Observable | Value Observed
COc1cc(/C=C/C(=O)OCCCCN(C)CCCCOC(=O)c2c3ccccc3cc3ccccc23)cc(OC)c1OC | IC50 | 230 nM
COc1cc(/C=C/C(=O)OCCCCCN(C)CCCOC(=O)c2c3ccccc3cc3ccccc23)cc(OC)c1OC | IC50 | 60 nM

Next item in the queue.
Query: Consider the compound COc1cc(/C=C/C(=O)OCCCN(C)CCCCCOC(=O)c2c3ccccc3cc3ccccc23)cc(OC)c1OC and give its measured IC50.
Result: 320 nM
